Assayed System: T1, human PD-1 (hPD-1) monomer (human, UniProt Q15116 25-167)
T1 construct: also called hu-PD-1; not shown: His tag (His-tagged monomer)
T1 sequence (Q15116 25-167 limits assumed): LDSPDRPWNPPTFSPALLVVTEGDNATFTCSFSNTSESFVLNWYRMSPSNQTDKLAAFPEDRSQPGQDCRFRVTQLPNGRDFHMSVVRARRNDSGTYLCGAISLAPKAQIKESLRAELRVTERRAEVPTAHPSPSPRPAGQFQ
Test Name: SPR, human PD-1, 25 C
I'd appreciate it if you could supply pKd values for the items below.
pKd is defined as minus the log10 of a concentration measured in mol/L.

Sample mAb13 (antibody, V domains shown, Variable regions only) VH: QVQLVQSGAEVKKPGASVKVSCKASGYTFTSYWINWVRQAPGQGLEWMGNIWPGSSLTNYNEKFKNRVTMTRDTSTSTVYMELSSLRSEDTAVYYCARLLTGTFAYWGQGTLVTVSS VL: DIVMTQSPDSLAVSLGERATINCKSSQSLWDSGNQKNFLTWYQQKPGQPPKLLIYWTSTRESGVPDRFSGSGSGTDFTLTISSLQAEDVAVYYCQNDYFYPLTFGGGTKVEIK — what was its pKd?
8.23

Sample mAb14 (antibody, V domains shown, Variable regions only) VH: QVQLVQSGAEVKKPGASVKVSCKASGYTFTSYWINWVRQAPGQGLEWMGNIWPGSSLTNYNEKFKNRVTMTRDTSTSTVYMELSSLRSEDTAVYYCARLLTGTFAYWGQGTLVTVSS VL: DIVMTQSPDSLAVSLGERATINCKSSQSLWDSGNQKNFLTWYQQKPGQPPKLLIYWTSYRESGVPDRFSGSGSGTDFTLTISSLQAEDVAVYYCQNDYFYPLTFGGGTKVEIK — what was its pKd?
9.22

Sample mAb3 (antibody, V domains shown, Variable regions only) VH: QVQLVQSGAEVKKPGASVKVSCKASGYTFTSYWINWVRQAPGQGLEWMGNIYPGSSLTNYNEKFKNRVTMTRDTSTSTVYMELSSLRSEDTAVYYCARLLTGTFAYWGQGTLVTVSS VL: DIVMTQSPDSLAVSLGERATINCKSSQSLWDSGNQKNFLTWYQQKPGQPPKLLIYWTSYRESGVPDRFSGSGSGTDFTLTISSLQAEDVAVYYCQNDYFYPHTFGGGTKVEIK — what was its pKd?
8.84
